# credit: patent US9795602B2

target: PXR (NR1I2) (Homo sapiens (Human)); assay: Human PXR activation assay (luciferase reporter, DPX2 cells); type: cell-based; conditions: human; 15 uM; DPX2 cells; % Emax relative to rifampicin, adjusted for DMSO background; read-out: PXR % inh at 15 uM (adjusted)
Sequence (O75469 whole entry): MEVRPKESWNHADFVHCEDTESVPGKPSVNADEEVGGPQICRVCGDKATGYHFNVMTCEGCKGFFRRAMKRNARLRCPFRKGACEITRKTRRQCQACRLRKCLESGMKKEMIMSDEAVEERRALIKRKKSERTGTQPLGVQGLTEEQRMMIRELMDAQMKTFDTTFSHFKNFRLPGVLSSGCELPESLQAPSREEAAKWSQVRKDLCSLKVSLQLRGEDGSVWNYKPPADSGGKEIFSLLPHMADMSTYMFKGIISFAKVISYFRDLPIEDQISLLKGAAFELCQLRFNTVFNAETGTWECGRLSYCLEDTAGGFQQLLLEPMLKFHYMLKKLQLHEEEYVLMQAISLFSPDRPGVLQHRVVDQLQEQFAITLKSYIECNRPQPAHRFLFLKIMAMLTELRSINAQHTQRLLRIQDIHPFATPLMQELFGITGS
observed-property: inhibition at 24 h, 15 µM (%)
Quick note: give the figure in %, leave out the unit.

[[record]]
molecule = "O=C(NCc1ccc(F)c(Cl)c1F)c1cn2c(c(O)c1=O)C(=O)N(CC(F)F)[C@@H]1COCC[C@@H]12 [Compound 36]"
observed_property = "inhibition at 24 h, 15 µM"
quantity_unit = "%"
number = 5


Documented inhibition at 24 h, 15 µM of O=C(NCc1c(F)cc(F)cc1F)c1cn2c(c(O)c1=O)C(=O)N(CC(F)F)[C@@H]1COCC[C@@H]12 [Compound 34] : 3

Documented inhibition at 24 h, 15 µM of CN1C(=O)c2c(O)c(=O)c(C(=O)NCc3ccc(F)c(Cl)c3F)cn2[C@H]2CCOC[C@H]21 [Compound 49] : 1

Documented inhibition at 24 h, 15 µM of CCN1C(=O)c2c(O)c(=O)c(C(=O)NCc3c(F)cc(F)cc3F)cn2[C@H]2COCC[C@H]21 [Compound 56] : 10

====

target: UniProt O75469; experiment: Human PXR activation assay (luciferase reporter, DPX2 cells); format: cell-based; settings: human; 15 uM; DPX2 cells; % Emax relative to rifampicin, adjusted for DMSO background; read-out: PXR % inh at 15 uM (adjusted)
Use satisfied when the recorded inhibition at 24 h, 15 µM is no lower than 9%; use not satisfied when it is lower.

[[record]]
compound = "CN1C(=O)c2c(O)c(=O)c(C(=O)NCc3ccc(F)c(Cl)c3F)cn2[C@H]2C[C@@H]3C[C@@H]3[C@H]21"
classification = "satisfied"

[[record]]
compound = "CCN1C(=O)c2c(O)c(=O)c(C(=O)NCc3c(F)cc(F)cc3F)cn2[C@H]2COC[C@H]21"
classification = "satisfied"

[[record]]
compound = "CN1C(=O)c2c(O)c(=O)c(C(=O)NCc3c(F)cc(F)cc3F)cn2[C@H]2CCCC[C@H]21"
classification = "satisfied"

[[record]]
compound = "O=C(NCc1c(F)cc(F)cc1F)c1cn2c(c(O)c1=O)C(=O)N(CC(F)(F)F)[C@@H]1CCOC[C@H]12"
classification = "satisfied"

[[record]]
compound = "CCN1C(=O)c2c(O)c(=O)c(C(=O)NCc3ccc(F)c(F)c3F)cn2[C@H]2CCOC[C@H]21"
classification = "satisfied"

[[record]]
compound = "CCN1C(=O)c2c(O)c(=O)c(C(=O)NCc3c(F)cc(F)cc3F)cn2[C@H]2CCO[C@H]21 [Compound 26b]"
classification = "satisfied"


Q) Exam item: decide whether the reported inhibition at 24 h, 15 µM for CCN1C(=O)c2c(O)c(=O)c(C(=O)NCc3cc(F)c(F)cc3F)cn2[C@H]2CCOC[C@H]21 is at least 9%.
A) not satisfied

Q) Exam item: decide whether the reported inhibition at 24 h, 15 µM for CCN1C(=O)c2c(O)c(=O)c(C(=O)NCc3c(F)cc(F)cc3F)cn2[C@@H]2CCOC[C@H]21 is at least 9%.
A) satisfied

Q) Exam item: decide whether the reported inhibition at 24 h, 15 µM for O=C(NCc1c(F)cc(F)cc1F)c1cn2c(c(O)c1=O)C(=O)N(C1CC1)[C@H]1OCC[C@H]12 (racemic) is at least 9%.
A) not satisfied

Q) Exam item: decide whether the reported inhibition at 24 h, 15 µM for CCN1C(=O)c2c(O)c(=O)c(C(=O)NCc3cc(Cl)c(F)cc3F)cn2[C@H]2CCOC[C@H]21 is at least 9%.
A) not satisfied

Q) Exam item: decide whether the reported inhibition at 24 h, 15 µM for CCN1C(=O)c2c(O)c(=O)c(C(=O)NCc3ccc(F)c(Cl)c3F)cn2[C@@H]2CCO[C@@H]21 [Compound 25a] is at least 9%.
A) satisfied

Q) Exam item: decide whether the reported inhibition at 24 h, 15 µM for CCN1C(=O)c2c(O)c(=O)c(C(=O)NCc3cccc(F)c3F)cn2[C@H]2CCOC[C@H]21 is at least 9%.
A) not satisfied

Q) Exam item: decide whether the reported inhibition at 24 h, 15 µM for C[C@@H]1OCC[C@H]2[C@@H]1N(C)C(=O)c1c(O)c(=O)c(C(=O)NCc3ccc(F)c(Cl)c3F)cn12 is at least 9%.
A) not satisfied

Q) Exam item: decide whether the reported inhibition at 24 h, 15 µM for CN1C(=O)c2c(O)c(=O)c(C(=O)NCc3c(F)cc(F)cc3F)cn2[C@H]2COCC[C@]21C is at least 9%.
A) satisfied

Q) Exam item: decide whether the reported inhibition at 24 h, 15 µM for CN1C(=O)c2c(O)c(=O)c(C(=O)NCc3c(F)cc(F)cc3F)cn2[C@@H]2COC[C@@H]21 is at least 9%.
A) satisfied

Q) Exam item: decide whether the reported inhibition at 24 h, 15 µM for CCN1C(=O)c2c(O)c(=O)c(C(=O)NCc3ccc(F)cc3F)cn2[C@H]2CCOC[C@H]21 is at least 9%.
A) satisfied

Q) Exam item: decide whether the reported inhibition at 24 h, 15 µM for CN1C(=O)c2c(O)c(=O)c(C(=O)NCc3c(F)cc(F)cc3F)cn2[C@@H]2CCCC[C@@H]21 is at least 9%.
A) satisfied

Q) Exam item: decide whether the reported inhibition at 24 h, 15 µM for CCCN1C(=O)c2c(O)c(=O)c(C(=O)NCc3c(F)cc(F)cc3F)cn2[C@H]2CCOC[C@H]21 is at least 9%.
A) satisfied

Q) Exam item: decide whether the reported inhibition at 24 h, 15 µM for CN1C(=O)c2c(O)c(=O)c(C(=O)NCc3c(F)cc(F)cc3F)cn2[C@H]2COC[C@H]21 is at least 9%.
A) not satisfied

Q) Exam item: decide whether the reported inhibition at 24 h, 15 µM for CCN1C(=O)c2c(O)c(=O)c(C(=O)NCc3ccc(F)c(Cl)c3F)cn2[C@@H]2CCOC[C@H]21 is at least 9%.
A) not satisfied

Q) Exam item: decide whether the reported inhibition at 24 h, 15 µM for CCCN1C(=O)c2c(O)c(=O)c(C(=O)NCc3c(F)cc(F)cc3F)cn2[C@@H]2CCO[C@@H]21 (racemic) is at least 9%.
A) satisfied

Q) Exam item: decide whether the reported inhibition at 24 h, 15 µM for CCN1C(=O)c2c(O)c(=O)c(C(=O)NCc3ccc(F)c(Cl)c3F)cn2[C@H]2CCO[C@H]21 [Compound 25b] is at least 9%.
A) satisfied

Q) Exam item: decide whether the reported inhibition at 24 h, 15 µM for CN1C(=O)c2c(O)c(=O)c(C(=O)NCc3c(F)cc(F)cc3F)cn2[C@H]2[C@@H]3C[C@@H]3C[C@H]21 is at least 9%.
A) satisfied

Q) Exam item: decide whether the reported inhibition at 24 h, 15 µM for CCN1C(=O)c2c(O)c(=O)c(C(=O)NCc3ccc(F)c(Cl)c3F)cn2[C@H]2COCC[C@H]21 is at least 9%.
A) not satisfied

Q) Exam item: decide whether the reported inhibition at 24 h, 15 µM for CCN1C(=O)c2c(O)c(=O)c(C(=O)NCc3c(F)cc(F)cc3F)cn2[C@@H]2COC[C@@H]21 is at least 9%.
A) satisfied

Q) Exam item: decide whether the reported inhibition at 24 h, 15 µM for CN1C(=O)c2c(O)c(=O)c(C(=O)NCc3c(F)cc(F)cc3F)cn2[C@@H]2CCO[C@@H]21 is at least 9%.
A) not satisfied
